Consider the following compounds and their measured pKi readings.
Measurement target: human 5-HT2A receptor (Homo sapiens (Human))
Assay notes: biochemical
Format: binding
Applied conditions: [3H]-ketanserin, human 5-HT2A receptor-expressed CHO cell membrane; read-out: 5-HT2A receptor binding inhibition constant Ki
pKi: −log10 of the molar value.
Endpoint name: pKi

>>> readout_value("CNCc1cc(OCc2ccc(F)cc2C)n(CC2CCCCO2)n1 (centres unmarked)")
8.32
>>> readout_value("CNCc1cc(OCc2cc(Cl)ccc2F)n(C(C)C2CCCC2)n1 (centres unmarked)")
8.60
>>> readout_value("CNCc1cc(OCc2ccccc2F)n(CC2CCCCC2)n1")
9.19
>>> readout_value("CNCc1cc(OCc2cc(F)ccc2F)n(Cc2ccc(Cl)cc2)n1")
8.92
>>> readout_value("CNCc1cc(OCc2cc(Cl)ccc2Cl)n(CC2CCCCC2)n1")
8.49
>>> readout_value("CNCc1cc(OCc2ccc(F)cc2Cl)n(CC2CCCCC2)n1")
9.28
>>> readout_value("CNCc1cc(OCc2cc(Cl)ccc2F)n(CCC(C)(C)OC)n1")
8.23
>>> readout_value("CNCc1cc(OCc2ccccc2Cl)n(C(C)C2CCCCC2)n1 (centres unmarked)")
8.68
>>> readout_value("CNCc1cc(OCc2cc(F)ccc2F)n(CC2CCCC2)n1.Cl")
8.66
>>> readout_value("CNCc1cc(OCc2cc(F)ccc2F)n(C(C)C2CCCCC2)n1 (centres unmarked)")
8.74
>>> readout_value("CNCc1cc(OCc2cc(Cl)ccc2F)n(CC(C)(C)C)n1")
8.12
